- targetSystem: Phosphodiesterase 6
- experimentalProtocol: Inhibition of human recombinant PDE6 assessed as inhibition of [3H]cAMP hydrolysis by scintillation proximity assay
- Type: protein assay
Ki listing for selected compounds.
quantityName: Ki

molecule: COc1cc2c(cc1OC)-c1c(-c3cccnc3)ncn1CC2
reading: > 4.274 µM
//
molecule: COc1cc2c(cc1OC)-c1c(-c3cnc(C(=O)N(C)C(C)(C)C)s3)ncn1CC2
reading: > 2 µM
//
molecule: COc1cc2c(cc1OC)-c1c(-c3cccnc3)nc(C)n1CC2
reading: > 7.95 µM
//
molecule: COc1cc2c(cc1OC)-c1c(-c3cncs3)nc(C)n1CC2
reading: > 7.1 µM
//
molecule: COc1cc2c(cc1OC)-c1c(-c3cncs3)ncn1CC2
reading: > 2 µM
